Origin of values: patent US20210403576A1

- target-or-test-system: T1, human c-Met (Sino Biological) (human, UniProt P08581 25-932, limits assumed)
- T1 construct: Analyte in the Biacore assay; also called antigen (c-Met); printed as "human c-Met antibody (Sino Biological, Beijing, China)"
- T1 sequence (P08581 25-932 limits assumed): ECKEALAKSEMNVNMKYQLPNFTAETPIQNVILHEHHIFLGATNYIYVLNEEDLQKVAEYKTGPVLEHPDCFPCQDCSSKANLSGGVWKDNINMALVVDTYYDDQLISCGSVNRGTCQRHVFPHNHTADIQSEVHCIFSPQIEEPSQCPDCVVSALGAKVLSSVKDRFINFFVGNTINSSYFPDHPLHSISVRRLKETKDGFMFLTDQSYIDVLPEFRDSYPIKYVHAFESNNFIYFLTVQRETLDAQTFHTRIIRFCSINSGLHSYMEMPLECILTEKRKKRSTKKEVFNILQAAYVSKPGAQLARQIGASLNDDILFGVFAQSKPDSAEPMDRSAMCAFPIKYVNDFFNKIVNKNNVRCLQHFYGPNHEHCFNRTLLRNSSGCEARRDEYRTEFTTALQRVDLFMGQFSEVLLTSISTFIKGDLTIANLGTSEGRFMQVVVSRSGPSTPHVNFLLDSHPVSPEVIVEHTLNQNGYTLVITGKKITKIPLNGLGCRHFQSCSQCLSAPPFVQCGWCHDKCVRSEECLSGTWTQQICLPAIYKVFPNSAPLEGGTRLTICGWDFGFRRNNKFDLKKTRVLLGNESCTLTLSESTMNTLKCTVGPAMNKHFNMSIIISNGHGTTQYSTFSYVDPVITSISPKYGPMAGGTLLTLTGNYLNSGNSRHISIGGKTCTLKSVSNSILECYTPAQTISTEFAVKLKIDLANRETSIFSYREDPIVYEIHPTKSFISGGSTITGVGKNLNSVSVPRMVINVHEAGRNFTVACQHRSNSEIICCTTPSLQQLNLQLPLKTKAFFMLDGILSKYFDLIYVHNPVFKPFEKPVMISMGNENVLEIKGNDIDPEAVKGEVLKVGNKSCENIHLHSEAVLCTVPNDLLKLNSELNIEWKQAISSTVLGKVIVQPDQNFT
- experiment: SPR (Biacore T200), IgG captured on Protein A CM5 chip, c-Met 0.15-2 nM as analyte
Documented Relative KD to VMDO2 VH0/Vk0 across a set of binders
measurement-kind: Relative KD to VMDO2 VH0/Vk0

binder="VH6/Vk5 (antibody, IgG1, V domains shown, Full IgG1/kappa expressed in HEK 293 EBNA cells) VH: QVQLVQSGAEVKKPGSSVKVSCKASGYSFPTHWITWVRQAPGQGLEWMGTIDPTDSYNFYGPSFQGRVTITADKSTSTAYMELSSLRSEDTAVYYCARDGNYYDSRGYYYDTFDMWGQGTLVTVSS VL: EIVLTQSPGTLSLSPGERATLSCRASQGISTYLAWYQQKPGQAPRLLIYSASTLESGIPDRFSGSGSGTDFTLTISRLEPEDFATYYCQQADSFPLTFGGGTKVEIK" assay_result=1.07
binder="VH4/Vk5 (antibody, IgG1, V domains shown, Full IgG1/kappa expressed in HEK 293 EBNA cells) VH: QVQLVQSGAEVKKPGSSVKVSCQGSGYSFPTHWITWVRQAPGQGLEWMGTIDPTDSYNFYGPSFQGRVTITADSSTSTAYMELSSLRSEDTAMYYCARDGNYYDSRGYYYDTFDMWGQGTLVTVSS VL: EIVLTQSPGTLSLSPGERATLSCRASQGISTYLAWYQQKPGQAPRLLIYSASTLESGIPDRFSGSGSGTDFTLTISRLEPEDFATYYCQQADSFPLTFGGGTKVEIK" assay_result=1.01
binder="VH4/Vk0 (antibody, IgG1, V domains shown, Full IgG1/kappa expressed in HEK 293 EBNA cells) VH: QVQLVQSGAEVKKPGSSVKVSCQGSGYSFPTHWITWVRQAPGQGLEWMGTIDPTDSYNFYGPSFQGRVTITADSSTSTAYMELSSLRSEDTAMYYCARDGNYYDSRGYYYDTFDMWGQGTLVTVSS VL: DIQMTQSPSFLSASVGDRVTITCRASQGISTYLAWYQQKPGTAPKLLIYSASTLESGVPSRFSGSGSGTDFTLTISSLQPEDSATYYCQQADSFPLTFGGGTKVEIK" assay_result=0.76
